The entries below come with measured remaining activity values attached.
# Tested on: Aerobactin synthetase IucA (Klebsiella pneumoniae)
# test-description: IucA aerobactin synthetase inhibitors, biochemical, Tocris library, absorbance (AID 1345561);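 note: 100% = enzyme without compound and 0% = no enzyme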
# test-conditions: purified IucA enzyme assay, absorbance (OD) read-out; active compounds read low; concentration not given here
Peptide text beside a SMILES is read from it.

molecule: O=C(O)c1cccnc1C(=O)O
endpoint-unit: %
remaining activity: 95.4
--
molecule: O=C(CCCN1CCC(O)(c2ccc(Cl)cc2)CC1)c1ccc(F)cc1
endpoint-unit: %
remaining activity: 128
--
molecule: CC(=O)N[C@@H](CC(=O)O)C(=O)N[C@@H](CCC(=O)O)C(=O)O (Ac-Asp-Glu-OH)
endpoint-unit: %
remaining activity: 82.4
--
molecule: COc1ccccc1N1CCN(CCCCNC(=O)c2ccc(-c3ccc(C(C)=O)cc3)cc2)CC1
endpoint-unit: %
remaining activity: 111
--
molecule: CCc1cc(Cl)c(OC)c(C(=O)NC[C@@H]2CCCN2CC)c1O
endpoint-unit: %
remaining activity: 112
--
molecule: O=C(O)c1cc(=O)c2ccccc2[nH]1
endpoint-unit: %
remaining activity: 94.6
--
molecule: CCCCCCCCCCCCCCCC(=O)NCCO
endpoint-unit: %
remaining activity: 113
--
molecule: CCOC(=O)c1cnc2c(cnn2CC)c1NN=C(C)C
endpoint-unit: %
remaining activity: 115
--
molecule: COc1ccc(/C=C/C(=O)Nc2ccccc2C(=O)O)cc1OC
endpoint-unit: %
remaining activity: 119
--
molecule: CCOC(=O)[C@H](CCc1ccccc1)N[C@@H](C)C(=O)N1Cc2cc(OC)c(OC)cc2C[C@H]1C(=O)O
endpoint-unit: %
remaining activity: 110
--
molecule: CC1=C(/C=C/C(C)=C/C=C/C(C)=C/C(=O)Nc2ccc(O)cc2)C(C)(C)CCC1
endpoint-unit: %
remaining activity: 97.3
--
molecule: CN1CCN(C2=Nc3cc(Cl)ccc3Nc3ccccc32)CC1
endpoint-unit: %
remaining activity: 121
--
molecule: CN(C(=O)c1c(O)c2ccccc2n(C)c1=O)c1ccccc1
endpoint-unit: %
remaining activity: 121
--
molecule: O=C(O)Cc1nn(Cc2ccc(Br)cc2F)c(=O)c2ccccc12
endpoint-unit: %
remaining activity: 92.7
--
molecule: COP(=O)(OC)OC(c1ccc(Cl)cc1)P(=O)(OC)OC (stereo not drawn)
endpoint-unit: %
remaining activity: 122
--
molecule: O=C(O)c1c2ccccc2cc2ccccc12
endpoint-unit: %
remaining activity: 101
--
molecule: Cc1ccc(=O)n(-c2ccccc2)c1
endpoint-unit: %
remaining activity: 120
--
molecule: CN1CC(=O)N/C1=N/C(=O)Nc1cccc(Cl)c1
endpoint-unit: %
remaining activity: 109
--
molecule: Cc1cc(C)c(/C=C2\C(=O)Nc3ccccc32)[nH]1
endpoint-unit: %
remaining activity: 104
--
molecule: Nc1nc(NCC2CCC(CNS(=O)(=O)c3cccc4ccccc34)CC2)nc2ccccc12 (stereo not drawn)
endpoint-unit: %
remaining activity: 92.3
--
molecule: CC(C)NCC(O)COc1cccc2[nH]ccc12 (stereo not drawn)
endpoint-unit: %
remaining activity: 101
--
molecule: CCN1CCCC1CNC(=O)c1cc(S(N)(=O)=O)ccc1OC (stereo not drawn)
endpoint-unit: %
remaining activity: 107
--
molecule: CC[N+](CC)(CCNC(=O)C(=O)NCC[N+](CC)(CC)Cc1ccccc1Cl)Cc1ccccc1Cl
endpoint-unit: %
remaining activity: 122
--
molecule: CC(C)(C(=O)O)c1ccc(C(O)CCCN2CCC(C(O)(c3ccccc3)c3ccccc3)CC2)cc1 (stereo not drawn)
endpoint-unit: %
remaining activity: 89.1
--
molecule: COC(=O)C1=C(C)NC(C)=C(C(=O)OC)C1c1ccccc1[N+](=O)[O-]
endpoint-unit: %
remaining activity: 121
--
molecule: COC(=O)[C@@H]1CC2=CC(=O)CC[C@]2(C)[C@@]23O[C@@H]2C[C@@]2(C)[C@@H](CC[C@@]24CCC(=O)O4)[C@H]13
endpoint-unit: %
remaining activity: 96.4
--
molecule: Cn1ccc2cc3c(cc21)CCN3C(=O)Nc1cccnc1
endpoint-unit: %
remaining activity: 117
--
molecule: O=C1c2ccccc2S(=O)(=O)N1CCCCN1CCN(c2ncccn2)CC1
endpoint-unit: %
remaining activity: 111
--
molecule: O=C(O)Cn1c(C(=O)Nc2nc(-c3ccccc3Cl)cs2)cc2ccccc21
endpoint-unit: %
remaining activity: 99.8
--
molecule: NCCNC(=O)c1ccc(Cl)cn1
endpoint-unit: %
remaining activity: 98
--
molecule: COc1cc(CNC(=O)CCCC/C=C/C(C)C)ccc1O
endpoint-unit: %
remaining activity: 122
--
molecule: CCOC(=O)C1=C(O)C(=O)N(Cc2ccccc2)C1
endpoint-unit: %
remaining activity: 101
--
molecule: CC(C)C[C@H]1C(=O)N2CCC[C@H]2[C@]2(O)O[C@](NC(=O)[C@@H]3C=C4c5cccc6[nH]c(Br)c(c56)C[C@H]4N(C)C3)(C(C)C)C(=O)N12
endpoint-unit: %
remaining activity: 93.8
--
molecule: COc1cc2c(cc1OC)[C@@H]1CC(=O)[C@@H](CC(C)C)CN1CC2
endpoint-unit: %
remaining activity: 81.5
--
molecule: CN=C(NC#N)Nc1ccc(C2=NNC(=O)CC2C)cc1 (stereo not drawn)
endpoint-unit: %
remaining activity: 117
--
molecule: Cc1ccc2c(c1)c1c3n2CCNC3CCC1 (stereo not drawn)
endpoint-unit: %
remaining activity: 98.7
--
molecule: CC1(C)Oc2ccc(C#N)cc2[C@@H](N2CCCC2=O)[C@@H]1O
endpoint-unit: %
remaining activity: 118
--
molecule: CC(C)[N+]1(C)C2CCC1CC(OC(=O)C(CO)c1ccccc1)C2 (stereo not drawn)
endpoint-unit: %
remaining activity: 98.6

---

# system-under-test: ATP-dependent translocase ABCB1 (Homo sapiens)
# test-description: MDR1 (ABCB1) efflux transporter inhibition, cell-based (AID 377)
# test-conditions: MDR1-expressing cells, fluorescent substrate accumulation slope; concentration not given here
Results filed as inconclusive are left out. Activity calls are given as the source filed them. Rule as the data show it: active = fluorescence slope change above about 50%; inconclusive = mostly about 31% to 49%; inactive = weaker than that.
Classes used: label 1 = active, label 0 = inactive

compound: OC(CCCN1CCCCC1)(c1ccccc1)c1ccccc1
label-class: label 1
--
compound: C1CCc2nnnn2CC1
label-class: label 1
--
compound: CC(C)(C)c1ccc(C(O)CCCN2CCC(C(O)(c3ccccc3)c3ccccc3)CC2)cc1 (configuration not stated)
label-class: label 1
--
compound: CC(=O)c1ccc2c(c1)N(CCCN(C)C)c1ccccc1S2
label-class: label 1
--
compound: Cc1cc(C(C)(C)CC(C)(C)C)ccc1OCCOCC[N+](C)(C)Cc1ccccc1
label-class: label 1
--
compound: CC(CCc1ccc(O)cc1)NCCc1ccc(O)c(O)c1 (configuration not stated)
label-class: label 0
--
compound: CC(=O)N=c1sc(S(N)(=O)=O)nn1C
label-class: label 1
--
compound: Cc1cc(NS(=O)(=O)c2ccc(N)cc2)no1
label-class: label 1
--
compound: CCn1cc(C(=O)O)c(=O)c2ccc(C)nc21
label-class: label 1
--
compound: COc1c2occc2cc2ccc(=O)oc12
label-class: label 1
--
compound: N[C@@H](Cc1cc(I)c(Oc2ccc(O)c(I)c2)c(I)c1)C(=O)O
label-class: label 0
--
compound: O=C(/C=C/C=C/c1ccc2c(c1)OCO2)N1CCCCC1
label-class: label 1
--
compound: O=C1CN(/N=C/c2ccc([N+](=O)[O-])o2)C(=O)N1
label-class: label 1
--
compound: Clc1ccc(C(Cn2ccnc2)OCc2c(Cl)cccc2Cl)c(Cl)c1 (configuration not stated)
label-class: label 1
--
compound: C[C@H]1O[C@@H](O[C@H]2[C@@H](O)C[C@H](O[C@H]3[C@@H](O)C[C@H](O[C@H]4CC[C@@]5(C)[C@H](CC[C@@H]6[C@@H]5C[C@@H](O)[C@]5(C)[C@@H](C7=CC(=O)OC7)CC[C@]65O)C4)O[C@@H]3C)O[C@@H]2C)C[C@H](O)[C@@H]1O
label-class: label 0
--
compound: CN(C)CCOC(c1ccccc1)c1ccccc1 (tested in a mixture with another compound)
label-class: label 1
--
compound: CC(C(=O)O)c1ccc(N2Cc3ccccc3C2=O)cc1 (configuration not stated)
label-class: label 1

---

# test-description: stimulators of nuclear beta-catenin in C2C12, primary screen, imaging, WNT3A-conditioned medium, mouse C2C12, NPC library (AID 1117326); note: reference of the scale not given here
# test-conditions: at 10 µM, active compounds read high
The entries below come with measured nuclear beta-catenin stimulation values attached.
quantity-measured: nuclear beta-catenin stimulation (%)

compound: CC1(COc2ccc(CC3SC(=O)NC3=O)cc2)CCCCC1 (stereo unspecified)
endpoint-unit: %
measured-value: 2.4
--
compound: CCCCCCCCCCOc1cc2c(=O)c(C(=O)OCC)c[nH]c2cc1OCC
endpoint-unit: %
measured-value: -2.3
--
compound: CN1CCN(c2c(F)cc3c(=O)c(C(=O)O)cn4c3c2OCN4C)CC1
endpoint-unit: %
measured-value: -0.6
--
compound: C[C@]12CC[C@@H]3c4ccc(O)cc4CC[C@H]3[C@@H]1CC[C@@H]2OC(=O)CCC1CCCC1
endpoint-unit: %
measured-value: 28.4
--
compound: CCOC(=O)c1ccccc1O
endpoint-unit: %
measured-value: 1.4
--
compound: O=C(O)Cc1cccc2ccccc12
endpoint-unit: %
measured-value: -0.7
--
compound: Cc1cc2c(OCC(CNC(C)(C)C)OC(=O)c3ccccc3)cccc2[nH]1 (stereo unspecified)
endpoint-unit: %
measured-value: -0.6
--
compound: Cc1cc2c(cc1S(N)(=O)=O)S(=O)(=O)CCC2
endpoint-unit: %
measured-value: -0.4
--
compound: CC(=O)c1ccc2c(c1)N(CCCN(C)C)c1ccccc1S2
endpoint-unit: %
measured-value: 0.3
--
compound: NCCNCCNCCNCCN
endpoint-unit: %
measured-value: -1.7
--
compound: N[C@@H](Cc1c[nH]c2ccc(O)cc12)C(=O)O
endpoint-unit: %
measured-value: 1.6
--
compound: C#C[C@]1(OC(C)=O)CC[C@H]2[C@@H]3CCC4=C/C(=N/O)CC[C@@H]4[C@H]3CC[C@@]21CC
endpoint-unit: %
measured-value: 3.7
--
compound: CCN(CC)CCNC(C(=O)OCCC(C)C)c1ccccc1 (stereo unspecified)
endpoint-unit: %
measured-value: -0.8
--
compound: CCN[C@H]1C[C@H](C)S(=O)(=O)c2sc(S(N)(=O)=O)cc21
endpoint-unit: %
measured-value: 0.6
--
compound: Cc1nc2ccccc2n1Cc1ccc(Cl)cc1
endpoint-unit: %
measured-value: 1.3
--
compound: c1ccc2ccccc2c1
endpoint-unit: %
measured-value: 0.7
